test system: Rattus norvegicus; assay: Toxicity in STZ-induced diabetic Wistar rat model assessed as increase in body weight at 30 mg/kg, po repeated for 15 days […]; assay type: organism-based; details: in vivo, 360 h
observable: Activity

Worked examples, 5 compounds total:
compound="Cc1ccccc1NC(=O)NS(=O)(=O)c1ccc(N2N=C(c3ccco3)CC2c2ccc(N(C)C)cc2)cc1 (configuration not stated)" test_value=Non-toxic
compound="COc1ccc(C2CC(c3cc4ccccc4oc3=O)=NN2c2ccc(S(=O)(=O)NC(=S)NCc3ccccc3)cc2)cc1 (configuration not stated)" test_value=Non-toxic
compound="COc1ccc(C2CC(c3ccco3)=NN2c2ccc(S(=O)(=O)NC(=O)NCc3ccccc3)cc2)cc1 (configuration not stated)" test_value=Non-toxic
compound="Cc1ccccc1NC(=O)NS(=O)(=O)c1ccc(N2N=C(c3cc4ccccc4oc3=O)CC2c2ccc(N(C)C)cc2)cc1 (configuration not stated)" test_value=Non-toxic
compound="COc1ccc(Cl)cc1C(=O)NCCc1ccc(S(=O)(=O)NC(=O)NC2CCCCC2)cc1 [GLYBURIDE]" test_value=Toxic

stdin: # get_value(readout= Activity, system= Rattus norvegicus) for COc1ccc(C2CC(c3cc4ccccc4oc3=O)=NN2c2ccc(S(=O)(=O)NC(=O)Nc3ccccc3C)cc2)cc1 (configuration not stated)
stdout: Non-toxic

stdin: Param readout = Activity; param system = Rattus norvegicus; param query = CN(C)c1ccc(C2CC(c3ccco3)=NN2c2ccc(S(=O)(=O)NC(=O)NCc3ccccc3)cc2)cc1 (configuration not stated) ; response: value
stdout: Non-toxic

---

system: SNB-75; test: Growth inhibition of human SNB75 cells assessed as cell viability at 10 uM incubated for 48 hrs by sulforhodamine B assay; type: functional; conditions: SNB-75, 48 h, read-out: Activity
Rule: measured viability at 10 µM below 80% gets T; anything equal to or greater than 80% gets F.

A selection of reference data follows.
compound="CN(C)c1ccc(C2CC(c3cc4ccccc4oc3=O)=NN2c2ccc(S(=O)(=O)NC(=O)NCc3ccccc3)cc2)cc1 (stereo not given)" category_label=T
compound="COc1ccc(C2CC(c3ccco3)=NN2c2ccc(S(=O)(=O)NC(=O)NCc3ccccc3)cc2)cc1 (stereo not given)" category_label=F

Here is the next item to consider.
stdin: Take the compound COc1ccc(NC(=O)NS(=O)(=O)c2ccc(N3N=C(c4cc5ccccc5oc4=O)CC3c3ccc(N(C)C)cc3)cc2)cc1 (stereo not given) and say whether its viability at 10 µM is less than 80%.
stdout: T

---

tested on: CCRF-CEM; experiment: Growth inhibition of human CCRF-CEM cells assessed as cell viability at 10 uM incubated for 48 hrs by sulforhodamine B assay; format: functional; conditions: read-out: Activity
observable: viability at 10 µM (%)
# unit: % | format: bare number

compound="COc1ccc(NC(=O)NS(=O)(=O)c2ccc(N3N=C(c4cc5ccccc5oc4=O)CC3c3ccc(N(C)C)cc3)cc2)cc1 (stereo not given)" observable="viability at 10 µM" unit_text=% test_value=107
compound="CN(C)c1ccc(C2CC(c3cc4ccccc4oc3=O)=NN2c2ccc(S(=O)(=O)NC(=O)NCc3ccccc3)cc2)cc1 (stereo not given)" observable="viability at 10 µM" unit_text=% test_value=72
compound="O=C(NCc1ccccc1)NS(=O)(=O)c1ccc(N2N=C(c3cc4ccccc4oc3=O)CC2c2cccs2)cc1 (stereo not given)" observable="viability at 10 µM" unit_text=% test_value=108
compound="COc1ccc(C2CC(c3ccco3)=NN2c2ccc(S(=O)(=O)NC(=O)NCc3ccccc3)cc2)cc1 (stereo not given)" observable="viability at 10 µM" unit_text=% test_value=99

stdin: What viability at 10 µM value was documented for this compound, COc1ccc(C2CC(c3cc4ccccc4oc3=O)=NN2c2ccc(S(=O)(=O)NC(=O)Nc3ccccc3C)cc2)cc1 (stereo not given) ?
stdout: 92.6

These data points were gathered from ChEMBL document CHEMBL3621178.
